- Tested on: BT-549 breast
- Method Notes: NCI tumour cell line growth inhibition, 48 h
Measured Property: GI50

Report GI50 for CC(C)=CC(=O)OC1C(CO)OC(Oc2cc(O)c3c(=O)cc(-c4ccc(O)c(O)c4)oc3c2)C(OC2OC(C)C(O)C(O)C2O)C1O (stereo not drawn) please.
> 100 µM

Please give the measured GI50 for this compound: COc1ccc2nc3cccc([N+](=O)[O-])c3c(NCCNCCO)c2c1
0.051 µM

====

- Tested on: LOX IMVI melanoma
- Method Notes: NCI tumour cell line growth inhibition, 48 h
# TGI annotations

TGI for CC(C)(CN1CCCCC1)C(=O)/C=C/c1ccc(Cl)c(Cl)c1 ?
2.76 µM

Field request: TGI | item: Cc1cc(Oc2ccccc2)ccc1Nc1ncnc2ccc(-c3cnc(Cl)c(NS(C)(=O)=O)c3)cc12
4 µM
